- testProtocol: Mycobacterium tuberculosis growth inhibition, primary screen (AID 1259343)
- protocolConditions: at 10 µM
Out of some 6,200 compounds screened, about 2,900 (47%) were called active. Cut-off read from the data, not from the text of the source: active = inhibition above about 50%; inactive = the rest. The set was probably picked from earlier hits. Some of the results follow.
Thanks in advance; please answer with one of these: active, inactive

OCc1cn(-c2ccccc2)nc1-c1cc2ccccc2o1 = active
O=[N+]([O-])c1ccc(NN=C2CC3CC=CC23)c([N+](=O)[O-])c1 (stereo unspecified) = active

Returns: the outcome recorded for CC1=CC(=NNc2ccc(S(N)(=O)=O)cc2[N+](=O)[O-])CC(C)(C)C1 in this assay.
inactive

Same thing, different compound: Cn1c(SCC(N)=O)nc2scc(-c3ccc(F)cc3)c2c1=O
active

Same thing, different compound: Cc1cccc(/C=C/c2nc(-c3cc(C(=O)O)co3)cs2)c1
inactive

Same thing, different compound: CNC(=O)C1Sc2nc3scc(-c4ccccc4)c3c(=O)n2N=C1C (stereo unspecified)
inactive

---

Each record here notes measured inhibition.
- testProtocol: Mycobacterium tuberculosis growth inhibition, primary screen (AID 1259343)
- protocolConditions: at 10 µM, hits give high values
Out of some 6,200 compounds screened, about 2,900 (47%) were called active. The set was probably picked from earlier hits. Some of the results follow.
Respond numerically; units are % and should not be typed.

Guide cases for inhibition, answers given:
Cc1nn2c(-c3ccccc3Cl)cc(C(=O)O)nc2c1-c1ccccc1 = 71.1
Cc1ccc(-n2nnc(C(=O)OCc3ccccc3C)c2C)cc1 = 93.8
CC1Oc2ccccc2OC1C(=O)NCCOc1ccc2ccccc2c1 (stereo not drawn) = 29.2
CCC(C)(C)C1CCC(NC(=O)c2ccnc(C)n2)CC1 (stereo not drawn) = 70.8
CC(NC(=O)C/C=C/c1cccc(F)c1)C(O)Cc1ccccc1 (stereo not drawn) = 15.7

Entry CC1(C)CC(=O)CC(=NNC(=S)NC2CCCCC2)C1 has what inhibition?
34.4

Same thing, different compound: Cc1cc(C(=O)N2CCCC(C(=O)c3ccc(-c4ccccc4)cc3)C2)no1 (stereo not drawn)
79.4

Same thing, different compound: CCC(O)c1ccc(OCCCC(C)(C)C#N)cc1 (stereo not drawn)
90.6

Same thing, different compound: Cc1nn2c(-c3cccc(C(F)(F)F)c3)cc(C(=O)O)nc2c1-c1ccccc1
89.3

Same thing, different compound: CC(C(O)c1ccccc1)N(C)C(=O)c1ccccc1 (stereo not drawn)
1.34

Same thing, different compound: O=[N+]([O-])c1cc(Br)c(O)c(Br)c1
98.7

Same thing, different compound: COc1cccc(-c2coc3c(C)c4oc(=O)c(CCC(=O)O)c(C)c4cc23)c1
47

---

- testProtocol: Mycobacterium tuberculosis growth inhibition, primary screen (AID 1259343)
- protocolConditions: at 10 µM, hits give high values
In all, about 6,200 compounds went through this assay and about 2,900 (47%) were called active. The set was probably picked from earlier hits. Some of the results follow.
quantityMeasured: inhibition

CC(NCc1ccc(C(C)(C)C)cc1)c1ccc(S(C)(=O)=O)cc1 (configuration not stated) = 59.5% (active)
O=c1cc(CNc2cccc(F)c2)nc2sc3c(n12)CCCC3 = 30.1% (inactive)
CC(C)(C)n1c(NC(=O)c2ccc(F)cc2Cl)nc2ccccc21 = -8.71% (inactive)
C=CCn1c(-c2cc3c(s2)CCC(CC)C3)n[nH]c1=S (configuration not stated) = 3.05% (inactive)
COc1cc(/C=C/CN2CCCC(C(=O)Nc3ccc(-c4ccco4)cc3)C2)ccc1O (configuration not stated) = 45.7% (inactive)

Entry CCSc1ncc(CN2CCN(c3nc4ccccc4o3)CC2)cn1 has what inhibition?
95.3% (active)

Same thing, different compound: COc1cccc(Oc2cncnc2-c2ccc(OC)cc2O)c1
76.5% (active)

Same thing, different compound: CS(=O)(=O)c1ccc(CCNc2ccc(Cl)c(C#N)n2)cc1
24.5% (inactive)

Same thing, different compound: Cc1ccc(NC(=O)c2cc(C)n(C3CC3)c2C)c(C)c1
12.4% (inactive)

Same thing, different compound: COc1ccc(-c2ccc(=O)n(Cc3ccccc3C)n2)cc1
27.4% (inactive)

Same thing, different compound: CCC1CCc2c(sc3nc[nH]c(=O)c23)C1 (configuration not stated)
51.2% (active)

Same thing, different compound: O=C(Nc1ccc(-c2ccco2)cc1)C1CCCN(Cc2coc3ccccc3c2=O)C1 (configuration not stated)
31.3% (inactive)
